Each record here notes measured Neurite outgrowth, visual scale of 0 to 4.
# Tested on: pheochromocytoma PC12 cells
# experiment.summary: Neurite outgrowth quantitation in PC12 cell system
# Format: cell-based, rat
# particulars: compound 100 nM; 1–5 ng/ml NGF; 72 hours
Marks after values point to notes of the source that are not given here.

molecule: CN(CCc1ccccn1)C(=O)[C@@H]1CCCCN1S(=O)(=O)c1ccc(N)cc1 [Compound 1]
measured.value: 1***
//
molecule: CN(C(=O)[C@H](Cc1ccccc1)N(C)S(=O)(=O)c1ccc(C#N)cc1)C(CCCc1cccnc1)CCCc1cccnc1 [Compound 16]
measured.value: 4*
//
molecule: CNC(Cc1ccccc1)C(=O)N(C)C(CCCc1cccnc1)CCCc1cccnc1 (stereo not drawn) [Compound 109]
measured.value: 2*

## Task Quickly give me recorded Neurite outgrowth, visual scale of 0 to 4 for O=C(OC(CCCc1cccnc1)CCCc1cccnc1)C1CCCCN1 (stereo not drawn) [Compound 102]
## Result 2**

## Task Indicate its recorded Neurite outgrowth, visual scale of 0 to 4; the molecule in question is CN(C(=O)[C@H](Cc1ccccc1)N(C)S(=O)(=O)Cc1ccccc1)C(CCCc1cccnc1)CCCc1cccnc1 [Compound 12]
## Result 3*

## Task Return reported Neurite outgrowth, visual scale of 0 to 4. Input molecule: CC(=O)Nc1ccc(S(=O)(=O)N(C)[C@@H](Cc2ccccc2)C(=O)N(C)C(CCCc2cccnc2)CCCc2cccnc2)cc1 [Compound 15]
## Result 3*

* * *

Recorded below: Ki, system FKBP (Homo sapiens).

Guide cases for Ki, answers given:
compound: CNC(Cc1ccccc1)C(=O)N(C)CCc1ccccn1 (centres unmarked)
measured.value: > 25 µM

compound: CNC(Cc1ccccc1)C(=O)N(C)CCCc1cccnc1 (centres unmarked)
measured.value: > 25 µM

compound: O=C(NCc1cccnc1)C1CCCCN1 (centres unmarked)
measured.value: > 50 µM

compound: O=C(OC(CCCc1ccncc1)CCCc1cccnc1)C1CCCCN1Cc1ccncc1 (centres unmarked)
measured.value: > 50 µM

Kindly consider the entry below.
## Task Fill in reported Ki for this entry: CC(C)CN1CCCCC1C(=O)OC(CCCc1ccncc1)CCCc1cccnc1 (centres unmarked)
## Result > 50 µM

* * *

This section presents molecules with their documented Neurite outgrowth, visual scale of 0 to 4 values.
# System: pheochromocytoma PC12 cells
# experiment.summary: Neurite outgrowth quantitation in PC12 cell system
# Format: cell-based, rat
# particulars: compound 100 nM; 1–5 ng/ml NGF; 72 hours
Marks after values point to notes of the source that are not given here.

Known results for molecules:
molecule: CN(C(=O)[C@H](Cc1ccccc1)N(C)S(=O)(=O)CS(C)(=O)=O)C(CCCc1cccnc1)CCCc1cccnc1
measured.value: 3*

molecule: CN(C(=O)[C@H](Cc1ccccc1)N(C)S(=O)(=O)c1ccc(Nc2ccc([N+](=O)[O-])cc2[N+](=O)[O-])cc1)C(CCCc1cccnc1)CCCc1cccnc1
measured.value: 3*

molecule: CN(C)c1cccc2c(S(=O)(=O)N(C)[C@@H](Cc3ccccc3)C(=O)N(C)C(CCCc3cccnc3)CCCc3cccnc3)cccc12
measured.value: 3*

molecule: CNC(Cc1ccccc1)C(=O)N(C)CCc1ccccn1 (stereo not shown)
measured.value: 3*

molecule: CN(C)c1ccc(/N=N\c2ccc(S(=O)(=O)N(C)[C@@H](Cc3ccccc3)C(=O)N(C)C(CCCc3cccnc3)CCCc3cccnc3)cc2)cc1
measured.value: 2*

## Task Check the records and state Neurite outgrowth, visual scale of 0 to 4 for CNC(Cc1ccccc1)C(=O)N(C)CCCc1cccnc1 (stereo not shown)
## Result 3

## Task Given the molecule CN(CCCc1cccnc1)C(=O)C1CCCCN1 (stereo not shown) , write its reported Neurite outgrowth, visual scale of 0 to 4.
## Result 3*

## Task Entry `CN(C(=O)[C@H](Cc1ccccc1)N(C)S(=O)(=O)/C=C/c1ccccc1)C(CCCc1cccnc1)CCCc1cccnc1` needs its Neurite outgrowth, visual scale of 0 to 4 filled in; supply it.
## Result 3*

## Task Indicate its recorded Neurite outgrowth, visual scale of 0 to 4; the molecule in question is `COc1ccc(S(=O)(=O)N(C)[C@@H](Cc2ccccc2)C(=O)N(C)C(CCCc2cccnc2)CCCc2cccnc2)cc1OC`
## Result 3*

## Task Answer with reported Neurite outgrowth, visual scale of 0 to 4 of `CN(C(=O)[C@H](Cc1ccccc1)N(C)S(=O)(=O)c1ccc(N)cc1)C(CCCc1cccnc1)CCCc1cccnc1`
## Result 3*

## Task Fill in reported Neurite outgrowth, visual scale of 0 to 4 for this entry: CC(C)CN1CCCCC1C(=O)OC(CCCc1ccncc1)CCCc1cccnc1 (stereo not shown)
## Result 4*

## Task Check the records and state Neurite outgrowth, visual scale of 0 to 4 for O=C(NCc1ccncc1)C1CCCCN1 (stereo not shown)
## Result 4*

## Task Complete the entry with Neurite outgrowth, visual scale of 0 to 4 for O=C(OC(CCCc1ccncc1)CCCc1cccnc1)C1CCCCN1Cc1ccncc1 (stereo not shown)
## Result 4*

## Task Give the measured Neurite outgrowth, visual scale of 0 to 4 for O=C(NCc1cccnc1)C1CCCCN1 (stereo not shown)
## Result 0

## Task Hello, please tell me recorded Neurite outgrowth, visual scale of 0 to 4 for this one: `CN(C(=O)[C@H](Cc1ccccc1)N(C)S(=O)(=O)c1ccc(F)cc1)C(CCCc1cccnc1)CCCc1cccnc1`
## Result 2*

## Task Recall and state the measured Neurite outgrowth, visual scale of 0 to 4 for `CN(C(=O)[C@H](Cc1ccccc1)N(C)S(=O)(=O)c1ccccc1[N+](=O)[O-])C(CCCc1cccnc1)CCCc1cccnc1` .
## Result 2*
